System: slime in a reverse osmosis membrane
assayExplanation: Test Example 4: number of days for the differential pressure to reach 100 kPa
Set-up: species or system microorganism
conditionInfo: days for differential pressure to reach 100 kPa; substrates 30 mg/L as C, 10 mg/L as N, 0.5 mg/L as P; 20° C.; no addition: 10
The reader will find reported Number of days until occlusion values listed item by item below.
Remember to put the unit after the number in your answer.

Study these solved cases before continuing.
- compound: "Cn1sc(Cl)cc1=O [4-4, 5-chloro-2-methyl-4-isothiazolin-3-one]"
  Number of days until occlusion: "32 days"
- compound: "Cn1sc(Cl)cc1=O [4-5, 5-chloro-2-methyl-4-isothiazolin-3-one]"
  Number of days until occlusion: "18 days"
- compound: "O=S(=O)([O-])NCl.[Na+] [4-2, Sodium monochlorosulfamate]"
  Number of days until occlusion: "12 days"

Next item in the queue.
[in] Looking for the measured Number of days until occlusion of O=S(=O)([O-])NCl.[Na+] [4-3, Sodium monochlorosulfamate] , can you help?
[out] 30 days
